Assay overview: Solubilization tests of active ingredients by cyclodextrin dimers/trimer (soluble fraction analysed by CLHP)
Format: physicochemical
Conditions: thermodynamic from solid; Water alone, no cyclodextrin oligomer; stirred 24 hours; read-out: Amount of active ingredient solubilized in water
Experimental endpoint: solubility at 24 h (µg/mL)
Field format: number, assumed µg/mL, no unit text.

# Compound, Numeric result
rows = [
    ("C[C@@H](c1ncncc1F)[C@](O)(Cn1cncn1)c1ccc(F)cc1F", 685),
    ("CC(=O)O[C@H]1C(=O)[C@@]2(C)[C@H]([C@H](OC(=O)c3ccccc3)[C@]3(O)C[C@H](OC(=O)[C@H](O)[C@@H](NC(=O)c4ccccc4)c4ccccc4)C(C)=C1C3(C)C)[C@]1(OC(C)=O)CO[C@@H]1C[C@@H]2O", 0.7),
    ("CC[C@H]1OC(=O)[C@H](C)[C@@H](O[C@H]2C[C@@](C)(OC)[C@@H](O)[C@H](C)O2)[C@H](C)[C@@H](O[C@@H]2O[C@H](C)C[C@H](N(C)C)[C@H]2O)[C@](C)(O)C[C@@H](C)/C(=N\\OCOCCOC)[C@H](C)[C@@H](O)[C@]1(C)O", 464),
]

*Q* Identify solubility at 24 h associated with the compound CCC(=O)O[C@]1(C(=O)SCF)[C@H](C)C[C@H]2[C@@H]3C[C@H](F)C4=CC(=O)C=C[C@]4(C)[C@@]3(F)[C@@H](O)C[C@@]21C [Fluticasone Propionate]
*A* 0.1

*Q* Identify solubility at 24 h associated with the compound `CC(=O)O[C@@]12CO[C@@H]1C[C@H](O)[C@@]1(C)C(=O)[C@H](O)C3=C(C)[C@@H](OC(=O)[C@H](O)[C@@H](NC(=O)OC(C)(C)C)c4ccccc4)C[C@@](O)([C@@H](OC(=O)c4ccccc4)[C@H]21)C3(C)C`
*A* 4
